Target: HER2 S310F (Homo sapiens, UniProt P04626, S310F)
Construct: expressed in transfected cells; host or cells: BaF3 (murine pro-B)
Sequence (P04626 23-1255 S310F): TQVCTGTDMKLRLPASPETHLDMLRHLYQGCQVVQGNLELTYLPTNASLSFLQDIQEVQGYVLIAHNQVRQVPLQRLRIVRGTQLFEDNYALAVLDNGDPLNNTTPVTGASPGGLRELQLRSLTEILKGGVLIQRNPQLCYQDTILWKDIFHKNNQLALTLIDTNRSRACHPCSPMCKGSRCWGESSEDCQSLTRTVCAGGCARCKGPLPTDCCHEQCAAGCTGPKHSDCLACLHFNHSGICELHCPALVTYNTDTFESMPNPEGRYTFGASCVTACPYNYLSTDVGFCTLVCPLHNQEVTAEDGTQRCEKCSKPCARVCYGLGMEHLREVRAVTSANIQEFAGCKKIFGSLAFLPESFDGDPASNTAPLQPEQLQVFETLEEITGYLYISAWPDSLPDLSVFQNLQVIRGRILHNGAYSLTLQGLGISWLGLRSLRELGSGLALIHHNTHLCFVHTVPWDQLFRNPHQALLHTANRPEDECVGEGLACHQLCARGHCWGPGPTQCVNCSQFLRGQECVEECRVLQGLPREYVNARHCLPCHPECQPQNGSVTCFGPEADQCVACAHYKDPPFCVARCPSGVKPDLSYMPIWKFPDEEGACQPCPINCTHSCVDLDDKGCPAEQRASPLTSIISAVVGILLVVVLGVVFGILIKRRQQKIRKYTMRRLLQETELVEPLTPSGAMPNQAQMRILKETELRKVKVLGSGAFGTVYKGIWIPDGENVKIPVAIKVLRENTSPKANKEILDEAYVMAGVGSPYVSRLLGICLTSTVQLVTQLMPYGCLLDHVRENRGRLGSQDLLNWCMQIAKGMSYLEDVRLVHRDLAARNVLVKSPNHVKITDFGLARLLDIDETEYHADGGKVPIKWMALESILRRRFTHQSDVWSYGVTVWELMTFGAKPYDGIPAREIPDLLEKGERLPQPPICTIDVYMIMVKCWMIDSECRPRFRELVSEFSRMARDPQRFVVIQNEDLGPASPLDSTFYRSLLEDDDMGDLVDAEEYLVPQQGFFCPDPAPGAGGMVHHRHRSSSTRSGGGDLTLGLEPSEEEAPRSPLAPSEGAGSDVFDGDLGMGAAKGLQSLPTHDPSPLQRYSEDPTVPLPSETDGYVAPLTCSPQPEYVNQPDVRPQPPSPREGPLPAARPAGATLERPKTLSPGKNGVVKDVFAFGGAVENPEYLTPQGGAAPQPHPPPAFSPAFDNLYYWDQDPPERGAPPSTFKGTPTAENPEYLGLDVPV
Experiment: BaF3 cell proliferation assay, HER2 S310F (Table B)
Format: cell-based
Settings: potency code, 3 days, CellTiterGlo, read-out: HER2 S310F (Activity for Inhibiting HER2)
Would you mind telling me the reported IC50 of each entry?

Previously resolved entries follow.
C=CC(=O)Nc1cc2c(Nc3ccc(Oc4ccccc4)c(C)c3)ncnc2cc1C#C[C@@H]1[C@H]2CN(C)C[C@@H]12 [compound 117] | 50 to 100 nM
C=CC(=O)Nc1cc2c(Nc3ccc(OCc4ccccn4)c(Cl)c3)ncnc2cc1OCCN1CC2CN(C)CC2C1 (stereo not shown) [compound 77] | 20 to 30 nM
C=CC(=O)Nc1cc2c(Nc3ccc(OCc4cnccn4)c(Cl)c3)ncnc2cc1OCCCN1CC(OC)C1 [compound 179] | 10 to 20 nM
C=CC(=O)Nc1cc2c(Nc3ccc(OCc4cnccn4)c(Cl)c3)ncnc2cc1OCCN1CC(OC)C1 [compound 178] | 30 to 50 nM
C=CC(=O)Nc1cc2c(Nc3ccc(OCc4ccccn4)c(Cl)c3)ncnc2cc1OCCN1CCN(C)CC1 [compound 40] | 10 to 20 nM
C=CC(=O)Nc1cc2c(Nc3ccc(OCc4ccccn4)c(Cl)c3)ncnc2cc1OCCN1CCS(=O)(=O)CC1 [compound 125] | 100 to 200 nM

Next:
*Q* Specify reported IC50 for the compound shown: C=CC(=O)Nc1cc2c(Nc3ccc(OCc4ccccn4)c(Cl)c3)ncnc2cc1C#CC(C)(C)N1CCCC1 [compound 84]
*A* 5 to 10 nM

From: patent US11034672B1
